System: L1210 leukemia ip in BDF1 mice, survival T/C
Test Method Notes: NCI In Vivo Anticancer Drug Screen. Data for tumor model L1210 Leukemia (intraperitoneal) in B6D2F1 (BDF1) mice
Assay Conditions: endpoint: mean survival time; dose: 100.0 mg/kg/injection; schedule: Q04DX003 (ip); vehicle: Klucel (hydroxypropylcellulose) (HPC); higher = longer survival
Procedure: The antitumor activity of compounds was measured in mice bearing transplantable tumors. Survival or tumor size were measured and the results are expressed as the measurement made in the treated group (T) divided by the measurement made in the vehicle treated control group (C). The tumor model used in this assay is L1210 Leukemia (intraperitoneal) in B6D2F1 (BDF1) mice
Toxic doses and inconclusive results are not listed.
Reported Property: T/C

Take a look at these entries with their results.
[[record]]
molecule = "O=C1C=C(c2ccccc2)C2(c3ccccc3)OC2O1 (stereo not drawn)"
reported_property = "T/C"
data_value = "98 % of control"

[[record]]
molecule = "OCc1ccc(-c2ccccc2)cc1"
reported_property = "T/C"
data_value = "103 % of control"


Then this molecule:
Please respond with reported T/C (system L1210 leukemia ip in BDF1 mice, survival T/C) for CCC(c1ccc(OC)cc1)C(O)(CC)c1ccc(OC)cc1 (stereo not drawn) .
98 % of control

====

For each of the compounds below, state its T/C.
Tested on: L1210 leukemia ip in BDF1 mice, survival T/C
Test Method Notes: NCI In Vivo Anticancer Drug Screen. Data for tumor model L1210 Leukemia (intraperitoneal) in B6D2F1 (BDF1) mice
Assay Conditions: endpoint: mean survival time; dose: 100.0 mg/kg/injection; schedule: Q01DX001 (ip); vehicle: saline; higher = longer survival
Toxic doses and inconclusive results are not listed.

The cases that follow already have their T/C on record.
[[record]]
compound = "CC(=O)Nc1cccc(-c2ccccc2Cl)c1"
system = "L1210 leukemia ip in BDF1 mice, survival T/C"
data_value = "93 % of control"

[[record]]
compound = "Cn1c(=O)cc(C=Nc2ccc(S(N)(=O)=O)cc2)c2ccccc21"
system = "L1210 leukemia ip in BDF1 mice, survival T/C"
data_value = "102 % of control"

[[record]]
compound = "COc1nc2c(=O)[nH]cnc2n1C1OC(CO)C(O)C1O (configuration not stated)"
system = "L1210 leukemia ip in BDF1 mice, survival T/C"
data_value = "96 % of control"


For every item below, please supply its T/C.
1. O=C(CCCC(=O)NNC(=O)Nc1ccc(Cl)cc1)NNC(=O)Nc1ccc(Cl)cc1
2. CC(=O)Nc1ccc(Cc2ccc3[nH]c(C)cc(=O)c3c2)cc1
3. COC(C(OC(C)=O)C(OC(C)=O)C(OC(C)=O)C(COC(C)=O)OC(C)=O)n1cc(C)c(=O)[nH]c1=O (configuration not stated)
4. Cc1cccc(/C=C2/SC(=S)N(c3ccccc3)C2=O)c1
5. CC(=O)c1cccc(OC(=O)c2ccccc2)c1
6. CCCCCCCCCCSc1ncnc2c1ncn2CO
7. CCOC(=O)c1ccc(NC(=O)CCl)cc1

["96 % of control", "109 % of control", "97 % of control", "100 % of control", "106 % of control", "101 % of control", "104 % of control"]

Go through the list and state T/C for each entry.
1. CCCc1cc(CN2CCOCC2)c(O)c(CN2CCOCC2)c1O
2. CCCCCCOC(=O)Nc1ccc(S(=O)(=O)N(CCC)CCC)cc1
3. Cc1cc2c(C)c3nc4ccccc4c3c(C)c2c[nH]1

1. 91 % of control
2. 97 % of control
3. 98 % of control

For every record below, what is its T/C?
1. CCOC(=O)C(C)(O)C(C)(Cl)c1ccccc1 (configuration not stated)
2. COc1ccc(NP2(=O)OCC(C)([N+](=O)[O-])CO2)cc1 (configuration not stated)

101 % of control
102 % of control

Answer for every listed entry: what is its T/C? The entries follow.
1. Cc1c([N+](=O)[O-])sc2ccccc12
2. CC(=O)NC1CCC(O)CC1 (configuration not stated)
3. Cc1c2c(cc3c1OCN(C)C3)CN(C)CO2
4. COC(=O)c1ccccc1N(Cc1ccc(OC)c(OC)c1)S(=O)(=O)c1ccc(C)cc1
5. CCOC(=O)COc1ccc(N2C(N)=NC(N)=NC2(C)C)cc1
6. CC1=NN(c2ccc(S(=O)(=O)O)cc2)C(=O)/C1=C/C(C#N)C#N
7. NCC(=O)Nc1ccc(S(=O)(=O)c2ccc(NC(=O)CN)cc2)cc1
8. CN1CCN(c2c3c(nc4ccccc24)CCCC3)CC1

97 % of control
104 % of control
101 % of control
95 % of control
107 % of control
98 % of control
104 % of control
96 % of control

Batch: T/C for all items listed.
1. CC(=O)[O][Pb]([O]C(C)=O)([O]C(C)=O)[c]1ccccc1
2. NNCC(F)(F)F
3. [O-][n+]1ccccc1CCl
4. CCOC(=O)C(Cc1ccc(O)c([N+](=O)[O-])c1)N1C(=O)c2ccccc2C1=O (configuration not stated)
5. O=C(Nc1ccccc1)Nc1nccs1

97 % of control
101 % of control
100 % of control
107 % of control
102 % of control

Provide the reported T/C of each entry below, same order.
1. CS(=O)CC(N)C(=O)O (configuration not stated)
2. COc1ccc(C2C(=O)c3ccc(OC)c(OC)c3C2=O)cc1OC (configuration not stated)
3. Cc1cc2c3ccccc3ccc2[n+]2ccccc12
4. Cc1cccnc1C(=O)O

["97 % of control", "94 % of control", "107 % of control", "94 % of control"]

Required: T/C, one value per compound below.
1. Clc1ccc(SCNCc2ccccc2)cc1
2. CC(=O)Oc1ccc(C2(c3ccc(OC(C)=O)cc3)C(=O)Nc3ccccc32)cc1
3. C=C[Si](C)(OCC)OCC
4. CCCSc1ncnc2c1nc(C)n2CO
5. Cc1cc(C(=O)O)c(C)c2c1sc1ccccc12
6. Cc1ccnc(NS(=O)(=O)c2ccc(N=Nc3c(N)nc(N)nc3N)cc2)n1

1. 100 % of control
2. 91 % of control
3. 93 % of control
4. 114 % of control
5. 87 % of control
6. 92 % of control

Batch request: T/C for each of the following compounds.
1. COc1ccc(Cl)cc1/C=C/C=O
2. COc1ccc(NCC(O)CN2CCCCC2)cc1 (configuration not stated)

1. 91 % of control
2. 94 % of control

Provide the reported T/C of each entry below, same order.
1. Cc1cnc(C)c(OCCN2CC2)n1
2. O=C/C=C/c1cccc([N+](=O)[O-])c1

["93 % of control", "107 % of control"]

====

Tested on: L1210 leukemia ip in BDF1 mice, survival T/C
Test Method Notes: NCI In Vivo Anticancer Drug Screen. Data for tumor model L1210 Leukemia (intraperitoneal) in B6D2F1 (BDF1) mice
Assay Conditions: endpoint: mean survival time; dose: 200.0 mg/kg/injection; schedule: Q01DX009 (ip); vehicle: Klucel (hydroxypropylcellulose) (HPC); higher = longer survival
Toxic doses and inconclusive results are not listed.
For each of the molecules below, state its T/C.

[[record]]
molecule = "O=C(Oc1ccc(Cl)cc1)c1ccccc1"
data_value = "101 % of control"

[[record]]
molecule = "Cc1ccc(NC(=O)Nc2cccc(Cl)c2)cc1C"
data_value = "98 % of control"

[[record]]
molecule = "C=C(C)C1Cc2c(ccc3c(=O)c4c(oc23)COc2cc(OC)c(OC)cc2-4)O1 (stereo unspecified)"
data_value = "93 % of control"

[[record]]
molecule = "CCN(CC)CCNc1cccc2sc3ccccc3c(=O)c12"
data_value = "94 % of control"


Record T/C for all entries; do not skip any.
1. c1ccc(-c2ccc([Si](c3ccccc3)(c3ccccc3)c3ccccc3)cc2)cc1
2. O=C1C=C(c2ccccc2)C2(c3ccccc3)OC2O1 (stereo unspecified)

96 % of control
100 % of control

Look up T/C for the entries below, preserving their order.
1. Nc1cccc2c1C(=O)c1cccc(NC(=O)c3ccccc3)c1C2=O
2. CCCCCCC1CCC(C(=O)O)CC1 (stereo unspecified)
3. O=C(O)CCCCSc1ncnc2nc[nH]c12
4. O=C(O)CC(NC(=O)OCc1ccccc1)C(=O)O (stereo unspecified)
5. CC(C)c1ccc(NC(=O)c2ccc(Cl)c(Cl)c2)cc1

1: 95 % of control; 2: 98 % of control; 3: 101 % of control; 4: 98 % of control; 5: 91 % of control

====

Test system: L1210 leukemia ip in BDF1 mice, survival T/C
Test Method Notes: NCI In Vivo Anticancer Drug Screen. Data for tumor model L1210 Leukemia (intraperitoneal) in B6D2F1 (BDF1) mice
Assay Conditions: endpoint: mean survival time; dose: 100.0 mg/kg/injection; schedule: Q01DX001 (ip); vehicle: carboxymethylcellulose (CMC); higher = longer survival
Inconclusive results and toxic doses are left out.
Reported Property: T/C

[[record]]
molecule = "C[C@]12CC[C@H](O)C[C@H]1CC[C@@H]1[C@@H]2CC[C@]2(C)[C@@H](C3=CC(=O)OC3)[C@@H](O)C[C@]12O"
data_value = "107 % of control"

[[record]]
molecule = "Nc1nc(N)c(-c2ccc(Cl)cc2)c(C=O)n1"
data_value = "108 % of control"

[[record]]
molecule = "Cc1ccc(S(=O)(=O)Nc2cc(C)ccc2C)cc1"
data_value = "95 % of control"

[[record]]
molecule = "O=C1c2ccccc2C(=O)N1C1CCC(CO)C1 (centres undefined)"
data_value = "106 % of control"

[[record]]
molecule = "O=c1[nH]c(-c2ccccc2)nc2c1OCN(Cc1ccccc1)C2"
data_value = "101 % of control"


Below are some molecules; for each one, tell me its T/C.
1. O=C1C(c2ccccc2)=C(N2CCCCC2)C(=O)C(c2ccccc2)=C1N1CCCCC1
2. Cc1ccnc(NS(=O)(=O)c2ccc(N=Nc3c(N)n(C)c(=O)n(C)c3=O)cc2)n1
3. CCCCCCCCCCS
4. CC(C)(C)O[Si](OCC(F)(F)C(F)(F)C(F)(F)C(F)(F)C(F)(F)C(F)F)(OCC(F)(F)C(F)(F)C(F)(F)C(F)(F)C(F)(F)C(F)F)OC(C)(C)C
5. CCCCCCc1cc(OC(=O)c2ccccc2)ccc1OC(=O)c1ccccc1
6. COc1ccc(OC(C)=O)c(/C=C\C=O)c1

1: 90 % of control; 2: 98 % of control; 3: 114 % of control; 4: 94 % of control; 5: 97 % of control; 6: 94 % of control

List reported T/C for each of these molecules:
1. CCOC(=O)C/C(C)=N/N=C(\CCOC)COC
2. ClCCN(CCCl)c1ccc(-c2csc(COc3ccccc3)n2)cc1
3. Nc1c(Cl)cc2c(c1Br)Cc1ccccc1-2

["87 % of control", "102 % of control", "107 % of control"]

For every listed record, write down its T/C.
1. Cc1ccc(OCC(=O)Nc2ccc3c(c2)C(=O)c2ccccc2C3=O)c(C)c1
2. Cc1ccc2oc(=O)cc(C)c2c1
3. Nc1nc(N)c2[nH]cnc2n1 (tested in a mixture with another compound)
4. CC(=O)Nc1ccc(Cc2ccc(NC(C)=O)cc2[N+](=O)[O-])c([N+](=O)[O-])c1

["101 % of control", "91 % of control", "93 % of control", "105 % of control"]

Need T/C for each of these molecules.
1. Cc1ccc(S(=O)(=O)N2CCc3ccccc3C3(C2)OCCO3)cc1
2. Nc1cc(Cl)cc2[nH]c(=O)c3cc(Cl)ccc3c12
3. Cc1ccc(NCC(=O)NN)cc1C
4. CC1(C)C(OS(C)(=O)=O)C(C)(C)C1OS(C)(=O)=O (centres undefined)
5. CCOC(=O)c1ccc(N(CCC(=O)COC(C)=O)C(C)=O)cc1

1: 96 % of control; 2: 100 % of control; 3: 106 % of control; 4: 121 % of control; 5: 94 % of control

Respond only with T/C recorded for Cc1cc(C(C(N)=O)c2ccccc2)ccc1N(CCCl)CCCl (centres undefined)
112 % of control
